Tested on: inflammation of mice ears caused by calcium ionophore (A-23187)
protocol: Anti-inflammatory activity on inflammation of mice ears caused by calcium ionophore A-23187 (Examples 4-7)
Type: in vivo, male outbred hairless mice
conditions_used: Table I; 1.5 micromole topically to ear 30 min after 4.0 nmole A-23187; assessed at 4 hrs
property_measured: Reduction in Edema (%)
Report as a plain number; the unit % is understood.

A selection of reference data follows.
CCCCCCCCCC(=O)c1ccc(O)c(C(=O)Nc2ccc([N+](=O)[O-])cc2)c1: 59
CCCCCCCC(=O)c1ccc(O)c(C(=O)Nc2cccc(C(F)(F)F)c2)c1: 80
CCCCCCCC(=O)c1ccc(O)c(C(=O)Nc2ccc(C(F)(F)F)cc2)c1: 48

// next item, Reduction in Edema (%) requested
In: # query: Reduction in Edema (%) of entry O=C(Nc1ccc(Br)cc1)c1cc(Br)cc(Br)c1O [TBS, 3,4',5-tribromosalicylanilide, reference compound]
Out: 12

----------
Reduction in Erythema (%) values by entry
System: inflammation of mice ears caused by calcium ionophore (A-23187)
protocol: Anti-inflammatory activity on inflammation of mice ears caused by calcium ionophore A-23187 (Examples 4-7)
Type: in vivo, male outbred hairless mice
conditions_used: Table I; 1.5 micromole topically to ear 30 min after 4.0 nmole A-23187; assessed at 4 hrs
Report as a plain number; the unit % is understood.

A selection of reference data follows.
O=C(Nc1ccc(Br)cc1)c1cc(Br)cc(Br)c1O [TBS, 3,4',5-tribromosalicylanilide, reference compound]: 35
CCCCCCCC(=O)c1ccc(O)c(C(=O)Nc2ccc(C(F)(F)F)cc2)c1: 57
CCCCCCCCCC(=O)c1ccc(O)c(C(=O)Nc2ccc([N+](=O)[O-])cc2)c1: 59

In: # query: Reduction in Erythema (%) of entry CCCCCCCC(=O)c1ccc(O)c(C(=O)Nc2cccc(C(F)(F)F)c2)c1
Out: 76
